Listed here: items and their measured Activity.
- Test system: Pseudomonas aeruginosa
- ASSAY TEXT: Inhibition of Pseudomonas aeruginosa PBP3 using bocillin FL as a fluorogenic substrate assessed as residual activity at 1 mM preincubated for 1 hr followed by substrate addition measured after 30 mins by fluorescence anisotropy assay relative to control
All answers are understood in %, so give the number only.

| SMI | Activity / % |
| --- | --- |
| O=C(O)C[C@@H]1OB(O)c2ccc(OCc3ccccc3)cc21 | 20 |

Field request: Activity | item: OB(O)c1cccc(-c2nnn[nH]2)c1 82

----------
- Tested on: Pseudomonas aeruginosa
- ASSAY TEXT: Inhibition of Pseudomonas aeruginosa PBP3 using bocillin FL as a fluorogenic substrate assessed as residual activity at 1 mM preincubated for 1 hr followed by substrate addition measured after 30 mins by fluorescence anisotropy assay relative to control
MEASURE NAME: Activity

Consider the reported Activity for these compounds:
| SMI | Activity |
| --- | --- |
| CN1CCN(C(=O)[C@@H](Cc2ccccc2)NC(=O)c2ccc3c(c2)B(O)OC3)CC1=O | > 90% |
| CN1CCN(C(=O)CNC(=O)c2ccc3c(c2)B(O)OC3)CC1=O | > 90% |

Okay, now this compound:
Which Activity reading was recorded for the compound O=C1CN(C(=O)CNC(=O)c2ccc3c(c2)B(O)OC3)CCN1 ? > 90%

The measurements presented in this section are drawn from ChEMBL document CHEMBL5055635.
